assay: Surface tension of aqueous solutions at 20° C.; assay type: physicochemical; conditions: 1 g/l in water, (+0.3)
readout.name: γs (surface tension) (mNm^-1)
Value expressed in mNm^-1; do not type the unit.

Example compounds with recorded γs (surface tension):
Return reported γs (surface tension); argument: C[N+](C)(C)CCOP(=O)([O-])OCCC(F)(F)C(F)(F)C(F)(F)C(F)(F)C(F)(F)C(F)(F)C(F)(F)C(F)(F)F
23.0

Return reported γs (surface tension); argument: O=P(OCCC(F)(F)C(F)(F)C(F)(F)C(F)(F)C(F)(F)C(F)(F)F)(N1CCOCC1)N1CCOCC1
22.5

Return reported γs (surface tension); argument: C[N+](C)(C)CCOP(=O)([O-])OCCCCCCCCCCCC(F)(F)C(F)(F)C(F)(F)C(F)(F)C(F)(F)C(F)(F)C(F)(F)C(F)(F)F
30.0

Turning to the following compound.
Return reported γs (surface tension); argument: O=P(OCCC(F)(F)C(F)(F)C(F)(F)C(F)(F)C(F)(F)C(F)(F)C(F)(F)C(F)(F)F)(N1CCOCC1)N1CCOCC1
22.5

* * *

test: Growth and viability of lymphoblastoid cell cultures of the Namalva strain; format: cell-based; conditions: human, namalva lymphoblastoid cells; 1 g/l in 9% of NaCl; control = 100%; read-out: Cell Culture Viability %
readout.name: viability (%)
Value expressed in %; do not type the unit.

Return reported viability; argument: C[N+](C)(C)CCOP(=O)([O-])OCC(COC(=O)CCCCCCCCCCC(F)(F)C(F)(F)C(F)(F)C(F)(F)C(F)(F)C(F)(F)F)OC(=O)CCCCCCCCCCC(F)(F)C(F)(F)C(F)(F)C(F)(F)C(F)(F)C(F)(F)F (racemic)
95

Return reported viability; argument: O=P(OCCC(F)(F)C(F)(F)C(F)(F)C(F)(F)C(F)(F)C(F)(F)C(F)(F)C(F)(F)F)(N1CCOCC1)N1CCOCC1
106

Return reported viability; argument: C[N+](C)(C)CCOP(=O)([O-])OCC(COC(=O)CCCCCCCCCCC(F)(F)C(F)(F)C(F)(F)C(F)(F)F)OC(=O)CCCCCCCCCCC(F)(F)C(F)(F)C(F)(F)C(F)(F)F (racemic)
83

Return reported viability; argument: C[N+](C)(C)CCOP(=O)([O-])OCC(COCCCCCCCCCCCC(F)(F)C(F)(F)C(F)(F)C(F)(F)F)OCCCCCCCCCCCC(F)(F)C(F)(F)C(F)(F)C(F)(F)F (racemic)
91

* * *

assay: Fluorocarbon (F-decalin) emulsions: average particle size and stability; format: physicochemical; conditions: Table III; 1% compound + 2% EYP (Ref.: 3% EYP), 20% w/v F-decalin, sonication
Item-by-item account of Average Particle Size After Preparation
Value expressed in μm; do not type the unit.

Example molecules with recorded Average Particle Size After Preparation:
Return reported Average Particle Size After Preparation; argument: C[N+](C)(C)CCOP(=O)([O-])OCCC(F)(F)C(F)(F)C(F)(F)C(F)(F)C(F)(F)C(F)(F)C(F)(F)C(F)(F)F
0.15

Return reported Average Particle Size After Preparation; argument: O=P(OCCCCCCCCCCCC(F)(F)C(F)(F)C(F)(F)C(F)(F)C(F)(F)C(F)(F)F)(N1CCOCC1)N1CCOCC1
0.26

Return reported Average Particle Size After Preparation; argument: O=P(OCCCCCCCCCCCC(F)(F)C(F)(F)C(F)(F)C(F)(F)C(F)(F)C(F)(F)C(F)(F)C(F)(F)F)(N1CCOCC1)N1CCOCC1
0.26

Turning to the following molecule.
Return reported Average Particle Size After Preparation; argument: C[N+](C)(C)CCOP(=O)([O-])OCCCCCCCCCCCC(F)(F)C(F)(F)C(F)(F)C(F)(F)C(F)(F)C(F)(F)C(F)(F)C(F)(F)F
0.17
